Parameter IC50: see the listing below.
study system: T1, human Bcl-2 ΔC22 (human, UniProt P10415 1-217)
T1 construct: Recombinant, bacterial, N-terminal HexaHis fusion; hydrophobic C-terminus removed; also called hBcl-2
T1 sequence (P10415 other isoform, or with tags, fused parts or gaps mutant limits assumed): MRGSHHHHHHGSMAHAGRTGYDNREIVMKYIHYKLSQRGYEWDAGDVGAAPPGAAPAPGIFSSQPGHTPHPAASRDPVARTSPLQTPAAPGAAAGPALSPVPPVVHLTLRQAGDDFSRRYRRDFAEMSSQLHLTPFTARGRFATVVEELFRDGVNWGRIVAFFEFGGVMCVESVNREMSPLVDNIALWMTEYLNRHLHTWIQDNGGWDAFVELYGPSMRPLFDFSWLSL
assay protocol: Biacore solution competition against immobilised mouse wtBimBH3

{"binder": "PAELEVECATQLRRIGDKLNFRQKLL (also called Noxa m2; F32I) [Noxa (18-43) mt2]", "IC50": "> 100 µM"}

// IC50 lookup, key: PAELEVECATQLRRFGDELNFRQKLL (also called Noxa m1; K35E) [Noxa (18-43) mt1]
> 100 µM
